# Tested on: SR leukemia
# runDescription: NCI tumour cell line growth inhibition, 48 h; in the data active = GI50 below about 0.43 µM; inactive = the rest
// allowed return values: active, inactive

These recorded examples may help you get a feel for the data.
compound	qualitativeLabel
COc1ccc(Cn2cnc3cc(C(=O)Nc4cccc5ccccc45)ccc32)c(OC)c1	active
O=C(Nc1ccc(Cl)cc1)c1ccc([N+](=O)[O-])o1	inactive

Tell me the recorded outcome of this test for CC1CC(C)/C(=N/NC(N)=O)C(C(O)CC2CCC(=O)NC2=O)C1 (stereo unspecified) .
inactive

Tell me the recorded outcome of this test for CC(C)(C)c1cn2cccc(C(=O)N3CCN(CC(=O)Nc4ccc(Cl)cc4C(=O)c4ccccc4Cl)CC3)c2n1 .
inactive

Tell me the recorded outcome of this test for O[C@@H]1CCCN1Cc1cc2cc3c(cc2c2cc(OCc4ccccc4)ccc12)OCO3 .
inactive

Tell me the recorded outcome of this test for Cc1cc(NCCCCNc2ccnc3cc(Cl)ccc23)nc(Nc2ccc(C(=O)N3CCCC3)cc2)n1 .
active

====

# System: A498 renal
# runDescription: NCI tumour cell line growth inhibition, 48 h; in the data active = GI50 below about 0.43 µM; inactive = the rest
// allowed return values: YES (active), NO (inactive)

These recorded examples may help you get a feel for the data.
compound	subjectOfTest	qualitativeLabel
COc1cc2c3c(n(CCCCNC(=O)OCC4c5ccccc5-c5ccccc54)c(=O)c2cc1OC)-c1cc2c(cc1C3=O)OCO2	A498 renal	NO
Cc1ccc(/C=C/C(=O)c2ccc(N)cc2)c(C)c1	A498 renal	NO

Tell me the recorded outcome of this test for CC(C)(C)c1cn2cccc(C(=O)N3CCN(CC(=O)Nc4ccc(Cl)cc4C(=O)c4ccccc4Cl)CC3)c2n1 .
NO

Tell me the recorded outcome of this test for COc1cc(C2CC(c3ccc(Nc4ccnc5cc(Cl)ccc45)cc3)=NN2C=O)cc(OC)c1OC (stereo unspecified) .
NO

Tell me the recorded outcome of this test for CC1(C)N=C(N)N=C(N)N1c1ccc(OCC(=O)N2CCOCC2)c(Cl)c1 .
NO

Tell me the recorded outcome of this test for COc1ccc(Cn2cc3c(c2-c2ccc(O)cc2)CCc2cnoc2-3)cc1 .
YES

====

# System: MALME-3M melanoma
# runDescription: NCI tumour cell line growth inhibition, 48 h
The entries below come with measured log10(TGI) values attached.
The base-10 logarithm of TGI, taken with TGI in µM, is what appears here.

molecule	log10(TGI)
CCN(CC)CCCNc1nc2ccccc2c2c(=O)c3cc(Cl)ccc3sc12	0.51
COc1cc(/C=C/C(=O)C(C(=O)/C=C/c2ccc(OC(=O)CCNc3nnc(C)s3)c(OC)c2)C(=O)CCNc2nnc(C)s2)ccc1OC(=O)CCNc1nnc(C)s1	0.81
COc1ccc(NC(=O)COC(=O)c2cccc3c(=O)c4ccccc4[nH]c23)cc1	1.70

Entry Cc1cc(NCCCCNc2ccnc3cc(Cl)ccc23)nc(Nc2ccc(C(=O)N3CCCC3)cc2)n1 — recorded log10(TGI) = 0.62

Entry COc1ccc(N=Nc2c(C)c(C#N)c(=S)n(C3OC(COC(C)=O)C(OC(C)=O)C(OC(C)=O)C3OC(C)=O)c2-c2ccccc2)cc1 (configuration not stated) — recorded log10(TGI) = 1.48

Entry CC(C)C(Sc1nc(-c2ccccc2)c(-c2ccccc2)[nH]1)C(=O)N/N=C/c1ccc([N+](=O)[O-])cc1 (configuration not stated) — recorded log10(TGI) = 1.48

Entry Cc1ccc(/C=C/C(=O)c2ccc(N)cc2)c(C)c1 — recorded log10(TGI) = 0.55

Entry CC1C2(C)OC(=N)C(C#N)(C(c3ccco3)O2)C1(C#N)C#N (configuration not stated) — recorded log10(TGI) = 1.95

Entry Nc1ccc(C(=O)NN2C(=O)C(Cl)C2c2ccc([N+](=O)[O-])cc2)cc1 (configuration not stated) — recorded log10(TGI) = 1.40
